Listing of recorded log10 IC50 by entry.
Target: GluA1o-γ8 (GRIA1o-CACNG8 fusion construct) (Homo sapiens (Human), UniProt P42261+Q8WXS5)
Sequence (P42261 other isoform, or with tags, fused parts or gaps): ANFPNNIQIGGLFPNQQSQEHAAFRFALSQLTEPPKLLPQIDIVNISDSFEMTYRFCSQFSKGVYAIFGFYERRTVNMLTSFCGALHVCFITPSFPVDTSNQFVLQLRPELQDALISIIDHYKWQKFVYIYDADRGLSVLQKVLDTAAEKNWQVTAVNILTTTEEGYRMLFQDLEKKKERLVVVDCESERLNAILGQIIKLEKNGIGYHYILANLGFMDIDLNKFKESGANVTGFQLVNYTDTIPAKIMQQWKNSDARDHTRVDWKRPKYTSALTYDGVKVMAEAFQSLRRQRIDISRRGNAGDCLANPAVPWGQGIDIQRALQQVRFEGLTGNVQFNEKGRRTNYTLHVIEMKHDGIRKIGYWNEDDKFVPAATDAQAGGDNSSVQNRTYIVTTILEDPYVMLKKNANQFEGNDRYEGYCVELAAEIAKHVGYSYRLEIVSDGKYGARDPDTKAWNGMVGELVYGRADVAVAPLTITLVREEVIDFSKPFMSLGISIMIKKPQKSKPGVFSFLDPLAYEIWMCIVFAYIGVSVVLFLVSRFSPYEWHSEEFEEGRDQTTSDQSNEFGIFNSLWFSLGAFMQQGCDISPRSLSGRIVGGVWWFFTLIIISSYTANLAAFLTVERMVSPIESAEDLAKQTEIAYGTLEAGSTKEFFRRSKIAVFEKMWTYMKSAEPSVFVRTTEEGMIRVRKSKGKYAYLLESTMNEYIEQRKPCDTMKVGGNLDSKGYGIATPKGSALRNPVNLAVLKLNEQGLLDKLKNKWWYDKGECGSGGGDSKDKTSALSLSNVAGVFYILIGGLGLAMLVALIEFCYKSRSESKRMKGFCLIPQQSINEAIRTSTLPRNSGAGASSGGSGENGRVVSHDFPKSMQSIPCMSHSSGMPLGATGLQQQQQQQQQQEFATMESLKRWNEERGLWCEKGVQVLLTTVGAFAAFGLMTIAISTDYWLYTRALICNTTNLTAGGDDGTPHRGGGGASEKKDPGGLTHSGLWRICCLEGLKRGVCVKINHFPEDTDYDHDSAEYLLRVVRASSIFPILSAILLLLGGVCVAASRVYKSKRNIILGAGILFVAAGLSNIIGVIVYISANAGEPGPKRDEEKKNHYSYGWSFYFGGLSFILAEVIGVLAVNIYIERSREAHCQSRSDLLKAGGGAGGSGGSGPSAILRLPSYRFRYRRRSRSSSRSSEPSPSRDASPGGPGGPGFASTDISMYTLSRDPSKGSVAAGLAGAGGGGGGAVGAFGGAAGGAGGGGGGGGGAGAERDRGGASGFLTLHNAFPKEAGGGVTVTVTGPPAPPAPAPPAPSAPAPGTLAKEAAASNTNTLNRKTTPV
Assay: Calcium flux assay (FLIPR), inhibition of TARP γ8 dependent AMPA receptor activity
Conditions: GluA1o-γ8 (GRIA1o-CACNG8 fusion) in HEK293 cells, calcium flux after 15 μM glutamate
measured-metric: log10 IC50 (log10 of the value in nM)

1) Cc1cc(-n2c(C(C)C)cc3ccc(C(F)(F)F)nc32)cc2c1NC(=O)C2 = -1.60
2) O=c1[nH]c2ccc(-n3c(-c4ccc(F)cc4)nc4ccc(Cl)nc43)cc2s1 = -0.70
3) FC(F)c1ccc2nc(C(F)(F)F)n(-c3cc(Cl)c4[nH]ncc4c3)c2n1 = -1.30
4) O=C1Cc2cc(-n3c(-c4ccc(F)cc4)cc4ccc(F)nc43)ccc2N1 = -0.10
5) Cc1cc(-n2c(-c3ccnc(F)c3)nc3ccc(C(F)F)nc32)cc2cn[nH]c12 = -0.80
6) CC(C)c1ccc2nc(C(F)(F)F)n(-c3ccc4[nH]ncc4c3)c2n1 = -0.20
7) CC(C)(C)c1nc2ccc(C(F)(F)F)nc2n1-c1ccc2[nH]ccc2c1 = 2.40
8) O=C1Cc2cc(-n3c(C4CCOC4)cc4ccc(C(F)(F)F)nc43)cc(F)c2N1 (racemic) = -0.70
9) Cc1ccc2nc(-c3ccccc3)n(-c3ccc4[nH]ncc4c3)c2n1 = -0.10
10) O=C(c1nc2ccc(C(F)(F)F)nc2n1-c1ccc2[nH]ncc2c1)N1CCCC1 = 4.00
11) O=C1Cc2cc(-n3c(-c4ccccc4)cc4ccc(C(F)(F)F)nc43)ccc2N1 = -1.40
12) CC(C)c1nc2ccc(C(F)(F)F)nc2n1-c1ccc2[nH]ncc2c1 = -0.60
13) CC(F)(F)c1nc2ccc(C(F)(F)F)nc2n1-c1ccc2[nH]c(=O)sc2c1 = -1.00
14) Cc1ccc2nc(-c3ccnc(F)c3)n(-c3cc(Cl)c4[nH]ncc4c3)c2n1 = -0.60
15) Fc1ccc(-c2nc3cccnc3n2-c2cnc3[nH]ncc3c2)cc1 = 2.60
16) FC(F)c1ccc2nc(C3CC3)n(-c3cc(Cl)c4[nH]ncc4c3)c2n1 = -1.30
17) CC(C)c1nc2cccnc2n1-c1cc(Cl)c2[nH]ncc2c1 = 0.80
18) Cc1cc(-n2c(C(F)(F)F)nc3cccnc32)cc2c1NC(=O)C2 = 1.50

###

Target: GluA1o-γ8 (GRIA1o-CACNG8 fusion construct) (Homo sapiens (Human), UniProt P42261+Q8WXS5)
Test: Calcium flux assay (FLIPR), inhibition of TARP γ8 dependent AMPA receptor activity
Conditions: GluA1o-γ8 (GRIA1o-CACNG8 fusion) in HEK293 cells, calcium flux after 15 μM glutamate
measured-metric: IC50

1. COCc1cc2ccc(C(F)(F)F)nc2n1-c1cc(F)c2c(c1)CC(=O)N2 = 0.631 nM
2. CCc1nc2ccc(C(F)(F)F)nc2n1-c1cc(Cl)c2[nH]ncc2c1 = 0.0316 nM
3. FC(F)(F)c1nc2ccc(C3CCC3)nc2n1-c1ccc2[nH]ncc2c1 = 0.158 nM
4. CC(C)c1nc2ccc(C(F)(F)F)nc2n1-c1cc(Cl)c2[nH]ncc2c1 = 0.02 nM
5. Fc1ccc(-c2cc3cccnc3n2-c2ccc3[nH]ccc3c2)cc1 = 79.4 nM
6. Cc1ccc2nc(-c3ccccc3)n(-c3ccc4[nH]c(=O)sc4c3)c2n1 = 0.501 nM
7. Cc1ccc2nc(-c3ccc(F)cc3)n(-c3ccc4[nH]c(=O)sc4c3)c2n1 = 0.794 nM
8. O=c1[nH]c2ccc(-n3c(C(F)F)cc4ccc(C(F)(F)F)nc43)cc2s1 = 0.126 nM
9. FC(F)(F)c1ccc2nc(CC3CC3)n(-c3cc(Cl)c4[nH]ncc4c3)c2n1 = 0.158 nM
10. CCOc1nc2ccc(C(F)(F)F)nc2n1-c1ccc2c(c1)CC(=O)N2 = 15.8 nM
11. O=c1[nH]c2ccc(-n3c(-c4ccccc4)nc4ccc(F)nc43)cc2s1 = 3.16 nM
12. O=C1Cc2cc(-n3c(-c4ccccc4)nc4cccnc43)ccc2N1 = 12.6 nM
13. CC(C)(C)Cc1nc2ccc(C(F)(F)F)nc2n1-c1ccc2c(c1)CC(=O)N2 = 251 nM
14. FC(F)(F)c1ccc2nc(C3CCC3)n(-c3cc(Cl)c4[nH]ncc4c3)c2n1 = 0.00501 nM
15. Fc1ccc(-c2nc3ccc(Cl)nc3n2-c2ccc3[nH]ncc3c2)cc1 = 2 nM
16. Cc1cccc(-c2nc3ccc(C(F)(F)F)nc3n2-c2ccc3[nH]ncc3c2)c1 = 0.316 nM
17. Cc1ccc2nc(C(C)(F)F)n(-c3ccc4c(c3)CC(=O)N4)c2n1 = 39.8 nM
18. Cc1cc(-n2c(C(F)(F)F)nc3ccc(C(F)(F)F)nc32)cc2c1NC(=O)C2 = 0.126 nM

###

Biological target: GluA1o-γ8 (GRIA1o-CACNG8 fusion construct) (Homo sapiens (Human), UniProt P42261+Q8WXS5)
Assay: Calcium flux assay (FLIPR), inhibition of TARP γ8 dependent AMPA receptor activity
Settings: GluA1o-γ8 (GRIA1o-CACNG8 fusion) in HEK293 cells, calcium flux after 15 μM glutamate
pIC50: −log10 of the molar value.
measured-metric: pIC50

1. Cc1ccc2cc(C(C)C)n(-c3cc(C)c4c(c3)CC(=O)N4)c2n1 [Example 360] = 10.20
2. CC(F)(F)c1nc2ccc(C(F)(F)F)nc2n1-c1ccc2[nH]ncc2c1 [Example 116] = 8.70
3. CC(C)c1cc2cccnc2n1-c1cc(Cl)c2[nH]ncc2c1 [Example 356] = 10.70
4. Cc1ccnc2c1nc(C1CC1)n2-c1ccc2[nH]c(=O)sc2c1 [Example 135] = 7.10
5. O=c1[nH]c2ccc(-n3c(-c4ccccc4)nc4c(C(F)F)ccnc43)cc2s1 [Example 69] = 8.90
6. FC(F)(F)c1ccc2nc(C3CC3)n(-c3ccc4[nH]ncc4c3)c2n1 [Example 43] = 8.70
7. FC(F)(F)c1ccc2nc(C(F)(F)F)n(-c3cc(-c4ccccc4)c4[nH]ncc4c3)c2n1 [Example 188] = 6.50
8. FC(F)(F)c1cc(N2CCOCC2)c2nc(C(F)(F)F)n(-c3ccc4[nH]ncc4c3)c2n1 [Example 231] = 8.40
9. Cc1cc(-n2cnc3ccc(C(F)(F)F)nc32)cc2cn[nH]c12 [Example 194] = 7.70
10. O=c1[nH]c2ccc(-n3c(C4CCC4)nc4ccc(C(F)(F)F)nc43)cc2o1 [Example 80] = 8.70
11. FC(F)(F)c1ccc2nc(C(F)(F)F)n(-c3ccc4[nH]ncc4c3)c2n1 [Example 89] = 8.90
12. O=c1[nH]c2ccc(-n3c(C(F)F)nc4ccc(C(F)(F)F)nc43)cc2o1 [Example 235] = 7.20
13. Cc1cc(-n2c(CO)cc3ccc(C(F)(F)F)nc32)cc2c1NC(=O)C2 [Example 329] = 9.00
14. Cc1cc(-n2c(C)cc3cccnc32)cc2cn[nH]c12 [Example 375] = 8.00
15. Cc1cc(-n2c(C(F)F)cc3ccc(C(F)(F)F)nc32)cc2c1NC(=O)C2 [Example 336] = 11.00
16. O=c1[nH]c2ccc(-n3c(-c4ccc(F)cc4)nc4cccnc43)cc2s1 [Example 20] = 8.30
17. Cc1cnc2c(c1)nc(-c1ccccc1)n2-c1ccc2[nH]ncc2c1 [Example 9] = 7.60
18. CC(C)c1cc2ccc(C(F)(F)F)nc2n1-c1cnc2[nH]ncc2c1 [Example 376] = 10.30

###

Target: GluA1o-γ8 (GRIA1o-CACNG8 fusion construct) (Homo sapiens (Human), UniProt P42261+Q8WXS5)
Assay: Calcium flux assay (FLIPR), inhibition of TARP γ8 dependent AMPA receptor activity
Conditions: GluA1o-γ8 (GRIA1o-CACNG8 fusion) in HEK293 cells, calcium flux after 15 μM glutamate
measured-metric: IC50 (nM)

1) O=c1[nH]c2ccc(-n3c(C(F)(F)F)nc4ccc(C(F)F)nc43)cc2s1 = 0.316
2) Cc1nc2ccc(C(F)(F)F)nc2n1-c1ccc2[nH]c(=O)sc2c1 = 6.31
3) FC(F)(F)c1ccc2nc(C3(F)CC3)n(-c3cc(Cl)c4[nH]ncc4c3)c2n1 = 0.0631
4) COC(C)c1cc2cccnc2n1-c1cc(C)c2c(c1)CC(=O)N2 (racemic) = 31.6

###

Target: GluA1o-γ8 (GRIA1o-CACNG8 fusion construct) (Homo sapiens (Human), UniProt P42261+Q8WXS5)
Assay: Calcium flux assay (FLIPR), inhibition of TARP γ8 dependent AMPA receptor activity
Conditions: GluA1o-γ8 (GRIA1o-CACNG8 fusion) in HEK293 cells, calcium flux after 15 μM glutamate
Listing of recorded log10 IC50 by entry.
measured-metric: log10 IC50 (log10 of the value in nM)

1. CCC(F)(F)c1nc2ccc(C(F)(F)F)nc2n1-c1cc(C)c2[nH]ncc2c1 = 0.50
2. C[C@@H](F)c1nc2ccc(C(F)(F)F)nc2n1-c1cc(Cl)c2[nH]ncc2c1 (single isomer, unassigned) = -1.00
3. Fc1cc(-c2nc3ccc(C(F)F)nc3n2-c2cc(Cl)c3[nH]ncc3c2)ccn1 = -1.00
4. Cc1cc(-n2c(C(C)C)cc3cccnc32)cc2c1NC(=O)C2 = -0.70
5. COc1nc2ccc(C(F)(F)F)nc2n1-c1cc(C)c2[nH]ncc2c1 = -0.40
6. FC(F)(F)c1nc2cccnc2n1-c1cc(Cl)c2[nH]ncc2c1 = 0.30
7. FC(F)(F)c1ccc2nc(C(F)(F)F)n(-c3cnc4[nH]ccc4c3)c2n1 = 1.60
8. Cc1ccc2nc(-c3ccc(F)cc3)n(-c3ccc4c(c3)CC(=O)N4)c2n1 = 0.50
